Measurement Target: GABA-A receptor; anion channel
Assay Overview: In vitro inhibition of [3H]P4S binding to Gamma-aminobutyric acid receptor of rat brain synaptic membranes
Assay type: cell membranes, Membrane
Each item that follows carries a reported pIC50.
A value of pIC50 is the negative decimal logarithm of a concentration given in moles per litre.

Solved entries:
NC[C@H](O)CC(=O)O: 5.72
NC[C@@H](O)CC(=O)O: 6.05
NC[C@H]1CC(O)=NO1: 6.27
NCC1CC(=O)NO1 (racemic): 7.74
NCc1cc(=O)[nH]o1 [MUSCIMOL]: 8.22

Now look at this one.
Request: Item under review: "NC[C@@H]1CC(=O)NO1" . Reported pIC50?
Result: 8.10

---

Measurement Target: Gamma-aminobutyric acid receptor subunit gamma-1 (Rattus norvegicus)
Sequence (P23574 whole entry): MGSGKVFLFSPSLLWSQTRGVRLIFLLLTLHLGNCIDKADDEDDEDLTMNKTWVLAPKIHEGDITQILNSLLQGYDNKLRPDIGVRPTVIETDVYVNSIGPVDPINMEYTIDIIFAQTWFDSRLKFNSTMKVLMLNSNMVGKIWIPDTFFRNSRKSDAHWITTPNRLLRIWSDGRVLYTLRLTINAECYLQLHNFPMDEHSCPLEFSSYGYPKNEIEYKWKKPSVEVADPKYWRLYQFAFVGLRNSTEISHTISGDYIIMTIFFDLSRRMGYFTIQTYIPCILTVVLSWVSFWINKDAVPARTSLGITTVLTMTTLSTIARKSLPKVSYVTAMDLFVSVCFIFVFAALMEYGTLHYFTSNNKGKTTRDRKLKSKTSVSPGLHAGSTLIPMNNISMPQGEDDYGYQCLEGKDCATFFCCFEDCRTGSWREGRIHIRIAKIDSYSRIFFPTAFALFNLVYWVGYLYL
Assay Overview: In vitro inhibition of [3H]GABA binding to Gamma-aminobutyric acid receptor of rat brain synaptic membranes
Reported IC50 values follow for various compounds
Respond with the bare value in µM.

NCc1cc(=O)[nH]o1: 0.006

Request: Can you look up IC50 on Gamma-aminobutyric acid receptor subunit gamma-1 (Rattus norvegicus) for "NC[C@H]1CC(O)=NO1" ?
Result: 0.25

Request: // query: "NC[C@@H]1CC(=O)NO1"
Result: 0.004

Request: Now the same for "NC[C@@H](O)CC(=O)O"
Result: 0.4

---

Measurement Target: GABA-A receptor; anion channel
Assay Overview: In vitro inhibition of [3H]THIP binding to Gamma-aminobutyric acid receptor in rat brain synaptic membranes
Format: cell membranes, Membrane
log10 IC50 for assorted compounds
For clarity, the numbers are log10 values of IC50 expressed in nM.

Would you please look over these solved cases?
NC[C@@H]1CC(=O)NO1: 0.48
NCc1cc(=O)[nH]o1: 0.70
NC[C@@H](O)CC(=O)O: 2.30
NCC1CC(=O)NO1 (racemic): 0.70
NC[C@H]1CC(O)=NO1: 2.15

We next turn to a different compound, shown below.
Request: Fill blank: measured log10 IC50 of the compound "NC[C@H](O)CC(=O)O" is ____.
Result: 2.48

---

Measurement Target: GABA transporter (Rattus norvegicus, UniProt P31647+P23978+P31646+P48056)
Type: functional, cell membranes, Brain, Membrane
Measured Metric: IC50

Recorded results for 3 compounds are shown here.
NCc1cc(O)no1: 320 µM
NC[C@@H](O)CC(=O)O: 29 µM
NCC1CC(=O)NO1 (racemic): 130 µM

Now, please, on to the next compound.
Request: Consider the compound shown here: "NC[C@@H]1CC(=O)NO1" What is its recorded IC50?
Result: > 500 µM
